System: H446 cells
Assay: Cell viability (IC50) assay in H446 SCLC cells
Type: cell-based, human
Conditions: Homo sapiens, NCI-H446, Rucaparib alone
Measurement type: IC50 (µM)
Return type: number; implicit unit µM.

IC50 recorded for this molecule, CNCc1ccc(-c2[nH]c3cc(F)cc4c3c2CCNC4=O)cc1 [Rucaparib] , is 32
